Data origin: PubChem BioAssay AID2060497

system: 317291-083-R-J1-PDC complex spheroids, viability; experiment: Anticancer human tumor 317291-083-R-J1-PDC patient-derived soft tissue sarcoma cell line growth inhibition [GQUAD]; conditions: second compound 0.316 µM; first compound 3.16 µM; active = viability on the fitted dose curve at most 10% of control; inactive = the rest;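 note: spheroids exposed to compounds for one week before readout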
Outcomes: active, inactive

molecule="CCCS(=O)(=O)Nc1ccc(F)c(C(=O)c2c[nH]c3ncc(-c4ccc(Cl)cc4)cc23)c1F + Cc1[nH]c2ccc(F)cc2c1-c1nc2c3cccnc3c3ncccc3c2[nH]1" targetundertest="317291-083-R-J1-PDC complex spheroids, viability" assignedlabel=inactive
molecule="COc1cccc2c1C(=O)c1c(O)c3c(c(O)c1C2=O)CC(O)(C(=O)CO)CC3OC1CC(N)C(O)C(C)O1 (stereo not given) + Cc1cnc(CNC(=O)c2c(=O)c3ccc(N4CCCN(C)CC4)nc3n3c2sc2ccccc23)cn1" targetundertest="317291-083-R-J1-PDC complex spheroids, viability" assignedlabel=active
molecule="O=c1[nH]cc(F)c(=O)[nH]1 + Cc1[nH]c2ccc(F)cc2c1-c1nc2c3cccnc3c3ncccc3c2[nH]1" targetundertest="317291-083-R-J1-PDC complex spheroids, viability" assignedlabel=inactive
molecule="C=CCn1c(=O)c2cnc(Nc3ccc(N4CCN(C)CC4)cc3)nc2n1-c1cccc(C(C)(C)O)n1 + CN(C)c1ccc(Nc2c3ccc(NC(=O)CCN4CCCC4)cc3nc3cc(NC(=O)CCN4CCCC4)ccc23)cc1" targetundertest="317291-083-R-J1-PDC complex spheroids, viability" assignedlabel=active
molecule="CC(=O)O[C@H]1C(=O)[C@@]2(C)[C@H]([C@H](OC(=O)c3ccccc3)[C@]3(O)C[C@H](OC(=O)[C@H](O)[C@@H](NC(=O)c4ccccc4)c4ccccc4)C(C)=C1C3(C)C)[C@]1(OC(C)=O)CO[C@@H]1C[C@@H]2O + Cc1cnc(CNC(=O)c2c(=O)c3ccc(N4CCCN(C)CC4)nc3n3c2sc2ccccc23)cn1" targetundertest="317291-083-R-J1-PDC complex spheroids, viability" assignedlabel=active
molecule="C#Cc1c(F)ccc2cc(O)cc(-c3ncc4c(N5CC6CCC(C5)N6)nc(OCC56CCCN5CC(F)C6)nc4c3F)c12 (stereo not given) + CN(C)c1ccc(Nc2c3ccc(NC(=O)CCN4CCCC4)cc3nc3cc(NC(=O)CCN4CCCC4)ccc23)cc1" targetundertest="317291-083-R-J1-PDC complex spheroids, viability" assignedlabel=inactive
molecule="CC(C)n1c(=O)n(C)c2cnc3cc(F)c(-c4ccc(OCCCN5CCCCC5)nc4)cc3c21 + CN(C)c1ccc(Nc2c3ccc(NC(=O)CCN4CCCC4)cc3nc3cc(NC(=O)CCN4CCCC4)ccc23)cc1" targetundertest="317291-083-R-J1-PDC complex spheroids, viability" assignedlabel=inactive
molecule="CCCS(=O)(=O)Nc1ccc(F)c(C(=O)c2c[nH]c3ncc(-c4ccc(Cl)cc4)cc23)c1F + Cc1cnc(CNC(=O)c2c(=O)c3ccc(N4CCCN(C)CC4)nc3n3c2sc2ccccc23)cn1" targetundertest="317291-083-R-J1-PDC complex spheroids, viability" assignedlabel=inactive
molecule="COc1ccc([C@@H](O)c2cc(-c3ncnc4cc(N5CCOCC5)ccc34)c(F)cc2Cl)nn1 + CN(C)c1ccc(Nc2c3ccc(NC(=O)CCN4CCCC4)cc3nc3cc(NC(=O)CCN4CCCC4)ccc23)cc1" targetundertest="317291-083-R-J1-PDC complex spheroids, viability" assignedlabel=inactive
molecule="O=C(NO)c1cnc(N2CCN(S(=O)(=O)c3ccc4ccccc4c3)CC2)nc1 + Cc1[nH]c2ccc(F)cc2c1-c1nc2c3cccnc3c3ncccc3c2[nH]1" targetundertest="317291-083-R-J1-PDC complex spheroids, viability" assignedlabel=active
molecule="O=C(c1cc(Cc2n[nH]c(=O)c3ccccc23)ccc1F)N1CCN(C(=O)C2CC2)CC1 + Cc1cnc(CNC(=O)c2c(=O)c3ccc(N4CCCN(C)CC4)nc3n3c2sc2ccccc23)cn1" targetundertest="317291-083-R-J1-PDC complex spheroids, viability" assignedlabel=inactive
molecule="C#Cc1c(F)ccc2cc(O)cc(-c3ncc4c(N5CC6CCC(C5)N6)nc(OCC56CCCN5CC(F)C6)nc4c3F)c12 (stereo not given) + Cc1[nH]c2ccc(F)cc2c1-c1nc2c3cccnc3c3ncccc3c2[nH]1" targetundertest="317291-083-R-J1-PDC complex spheroids, viability" assignedlabel=inactive
molecule="C=CC(=O)N1CCN(c2nc(=O)n(-c3c(C)ccnc3C(C)C)c3nc(-c4c(O)cccc4F)c(F)cc23)C(C)C1 (stereo not given) + Cc1cnc(CNC(=O)c2c(=O)c3ccc(N4CCCN(C)CC4)nc3n3c2sc2ccccc23)cn1" targetundertest="317291-083-R-J1-PDC complex spheroids, viability" assignedlabel=inactive
molecule="C#Cc1c(F)ccc2cc(O)cc(-c3ncc4c(N5CC6CCC(C5)N6)nc(OCC56CCCN5CC(F)C6)nc4c3F)c12 (stereo not given) + Cc1cnc(CNC(=O)c2c(=O)c3ccc(N4CCCN(C)CC4)nc3n3c2sc2ccccc23)cn1" targetundertest="317291-083-R-J1-PDC complex spheroids, viability" assignedlabel=inactive
molecule="COc1cccc2c1C(=O)c1c(O)c3c(c(O)c1C2=O)CC(O)(C(=O)CO)CC3OC1CC(N)C(O)C(C)O1 (stereo not given) + Cc1[nH]c2ccc(F)cc2c1-c1nc2c3cccnc3c3ncccc3c2[nH]1" targetundertest="317291-083-R-J1-PDC complex spheroids, viability" assignedlabel=active
